Target: T1, human CD19 on Raji cells (human, UniProt P15391 20-556)
T1 construct: whole, on cells
T1 sequence (looked up): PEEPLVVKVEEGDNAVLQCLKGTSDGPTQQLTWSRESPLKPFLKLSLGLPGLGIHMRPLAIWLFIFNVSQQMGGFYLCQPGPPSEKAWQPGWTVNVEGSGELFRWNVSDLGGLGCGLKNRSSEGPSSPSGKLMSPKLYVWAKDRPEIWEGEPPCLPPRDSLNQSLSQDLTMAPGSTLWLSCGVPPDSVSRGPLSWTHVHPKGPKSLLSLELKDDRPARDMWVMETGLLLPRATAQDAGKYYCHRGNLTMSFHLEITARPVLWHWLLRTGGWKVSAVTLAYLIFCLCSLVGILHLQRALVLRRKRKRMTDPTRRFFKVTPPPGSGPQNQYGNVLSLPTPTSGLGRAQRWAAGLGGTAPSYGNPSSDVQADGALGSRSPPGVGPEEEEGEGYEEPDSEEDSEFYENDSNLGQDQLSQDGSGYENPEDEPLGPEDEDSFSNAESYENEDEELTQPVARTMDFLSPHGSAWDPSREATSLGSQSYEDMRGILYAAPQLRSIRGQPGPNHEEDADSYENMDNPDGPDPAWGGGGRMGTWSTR
Test: FACS on Raji cells
Reported Maximum mean fluorescence intensity values for the following binders.
// no unit, no text: just the number

Completed entries (count: 9):
BINDER	MEASUREMENT
F4.96.6 (antibody, human IgG1, V domains shown, human-murine chimeric antibody, human IgG1) VH: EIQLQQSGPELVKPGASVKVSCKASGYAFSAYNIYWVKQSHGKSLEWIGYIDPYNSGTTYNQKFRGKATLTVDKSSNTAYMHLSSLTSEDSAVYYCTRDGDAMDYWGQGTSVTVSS VL: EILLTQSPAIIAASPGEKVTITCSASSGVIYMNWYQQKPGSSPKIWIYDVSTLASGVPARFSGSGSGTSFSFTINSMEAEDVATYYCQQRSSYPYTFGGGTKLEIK	25700
F5.3.6 (antibody, human IgG1, V domains shown, human-murine chimeric antibody, human IgG1) VH: DVQLQESGPGLVKPSQSQSLTCSVTGYSITSGYYWNWIRQFPGNKLEWMGYISYDGSNNYNPSLKNRISITRDTSKNQFFLKLNSVTTEDTVTYYCARAPLTGDRYWYFDVWGTGTTVTVSS VL: DIVLTQSPASLAVSLGQRATISCRASQSVSTSSYSYMHWYQQKPGQTPKLLIKYASNLKSGVPARFSGSGSGTDFTLNIHPVEEEDTATYYCQHSWEIPPTFGGGTKLEIK	22400
F6.5.20 (antibody, human IgG1, V domains shown, human-murine chimeric antibody, human IgG1) VH: QVQLQQPGAELVKPGASVKLSCKASGYTFTSYWMQWVKQRPGQGLEWIGEIDPSDSYTNYNQKFKGKASLTVDTSSSTAYMQLSSLTSEDSAVYYCARWGLLRNYYVMDYWGQGTSVTVSS VL: EIVLTQSPTTMAASPGEKITITCSASSSISSNYLHWYQQKPGFSPKLLIYRTSNLASGVPARFSGSGSGTSYSLTIGTMEAEDVATYYCQQGSSIPRMLTFGAGTKLELK	28600
F3.126.15 (antibody, human IgG1, V domains shown, human-murine chimeric antibody, human IgG1) VH: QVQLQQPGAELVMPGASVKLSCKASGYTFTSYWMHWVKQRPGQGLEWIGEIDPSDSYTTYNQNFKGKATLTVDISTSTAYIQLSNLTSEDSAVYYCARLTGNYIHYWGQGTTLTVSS VL: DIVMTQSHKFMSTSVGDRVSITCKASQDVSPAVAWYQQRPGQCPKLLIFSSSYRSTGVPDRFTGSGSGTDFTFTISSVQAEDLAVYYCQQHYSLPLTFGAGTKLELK	30300
F3.113.16 (antibody, human IgG1, V domains shown, human-murine chimeric antibody, human IgG1) VH: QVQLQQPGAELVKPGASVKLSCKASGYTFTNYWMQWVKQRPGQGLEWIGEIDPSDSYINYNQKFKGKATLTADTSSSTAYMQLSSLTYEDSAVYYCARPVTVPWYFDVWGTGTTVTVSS VL: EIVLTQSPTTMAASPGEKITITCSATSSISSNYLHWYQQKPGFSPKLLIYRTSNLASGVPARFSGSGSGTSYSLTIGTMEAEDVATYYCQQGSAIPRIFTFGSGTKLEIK	28800
F4.125.12 (antibody, human IgG1, V domains shown, human-murine chimeric antibody, human IgG1) VH: EVKLVESGGGLVQPGGSLKLSCAASGFTFSTYTMSWVRQTPEKRLEWVAFISSGGGHINYPDTVKGRFTISRDNAKNTLYLQMSSLKSEDTAMYYCARHSYWFFDVWGAGTTVTVSS VL: DVQITQSPSYLAASPGETITINCRASKNIDTYLAWYQEKPGKTNKLLIYSGSTLQSGIPSRFRGGGSGTDFTLTICSLEPEDFAMYYCQQHNEYPLTFGAGTKLELK	27100
F3.5.1 (antibody, human IgG1, V domains shown, human-murine chimeric antibody, human IgG1) VH: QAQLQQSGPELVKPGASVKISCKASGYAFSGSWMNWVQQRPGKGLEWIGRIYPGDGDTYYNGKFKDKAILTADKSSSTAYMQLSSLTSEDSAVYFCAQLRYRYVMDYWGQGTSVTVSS VL: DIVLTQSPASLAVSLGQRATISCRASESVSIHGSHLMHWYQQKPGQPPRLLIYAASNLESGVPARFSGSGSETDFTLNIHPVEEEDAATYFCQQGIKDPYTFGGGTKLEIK	24800
F4.18.13 (antibody, human IgG1, V domains shown, human-murine chimeric antibody, human IgG1) VH: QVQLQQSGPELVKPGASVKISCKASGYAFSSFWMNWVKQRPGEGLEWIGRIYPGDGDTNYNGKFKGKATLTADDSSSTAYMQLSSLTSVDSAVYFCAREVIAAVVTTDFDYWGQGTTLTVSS VL: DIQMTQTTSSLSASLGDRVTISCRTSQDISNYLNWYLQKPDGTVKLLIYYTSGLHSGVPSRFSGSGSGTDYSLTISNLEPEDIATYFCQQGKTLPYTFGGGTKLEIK	35200
F4.4.6 (antibody, human IgG1, V domains shown, human-murine chimeric antibody, human IgG1) VH: QVQLQQSGAELARPGASVKLSCKASGYTFTSYWMQWVKQRPGQGLEWIGAIYPGDGDSRYTQKFKGKATLTADKSSSTAYMQLSSLASEDSAVYYCARSTTTVLGNNFEYWGQGTTLTVSS VL: QIVLTQSPAIMSALPGEKVTMTCSASSSVSSMHWYQQKSGTSPKRWIYDTSKLASGVPARFSGSGSGTSYSLTISSMEAEDAATYYCQQWSSNPWTFGGGTKLEIK	26000

Now for another entry.
QUERY: Quick one: Maximum mean fluorescence intensity of F4.78.1 (antibody, human IgG1, V domains shown, human-murine chimeric antibody, human IgG1) VH: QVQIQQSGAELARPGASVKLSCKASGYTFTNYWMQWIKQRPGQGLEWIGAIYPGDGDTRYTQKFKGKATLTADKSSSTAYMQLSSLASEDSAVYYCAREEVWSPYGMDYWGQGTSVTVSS VL: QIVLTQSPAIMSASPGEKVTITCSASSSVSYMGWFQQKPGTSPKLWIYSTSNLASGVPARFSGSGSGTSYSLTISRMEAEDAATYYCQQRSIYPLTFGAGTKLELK ?
RESULT: 36900
